Attribute: self-cleavage
B1: HDV Ribozyme (parent)
chain: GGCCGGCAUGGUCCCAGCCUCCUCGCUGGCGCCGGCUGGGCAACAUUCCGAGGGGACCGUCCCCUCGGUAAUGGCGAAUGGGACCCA

- Variants of: B1
- PROCEDURE_DETAILS: self-cleavage, relative activity (ratio to wild type); higher = more cleavage; co-transcriptional
QUANTITY_KIND: self-cleavage

> print(dat)
    mutation.name  readout.value
 1       C3A U20G         0.0163
 2       U9A C32A         0.0898
 3      G28A C64U          0.117
 4      G38A C41U          0.354
 5      A42G C49G          0.358
 6       U9G G31C          0.378
 7      C22U G35C              0
 8      A16C C44G          0.317
 9      U20A G76A          0.135
10      U12A C41A          0.437
11      A42U A43U          0.604
12      G55A C66U           1.11
13      C14A C44U          0.166
14      C18G G34C          0.104
15      C13G A56U              0
16      C32U C44A          0.243
17      G28A C57U          0.163
18      G10U U69G          0.815
19      C19G G52A         0.0739
20      C44G C85U          0.892
21      C14G G25U         0.0504
22      G28A U47G          0.268
23      C24U C84G          0.157
24      C36U A78U          0.154
25      G53A G59U          0.862
26      G29A C64U          0.144
27      G52A C75G          0.227
28      C24U C36A         0.0256
29       C7A A71G          0.584
30      G29U A83C         0.0692
31      U47A A70G          0.831
32           U79A          0.808
33      C57A C86U           1.06
34      C48A G53A           1.05
35      G25U G50U         0.0361
36       A8U U27A          0.578
37       A8U C30U          0.529
38      A16C C33A          0.208
39      A51U C61U          0.781
40      G39C U79G          0.196
41       C3G G28A         0.0326
42      C64A U65G          0.937
43      G54U C75U          0.189
44      G52A A83U          0.475
45      C64U A78C          0.138
46      G52A A77C          0.309
47       C7A U23C          0.935
48       G2C G31C         0.0237
49      C15A U37A          0.102
50      C13G G31C              0
51      C15U A56U           0.91
52      A16U G53A           1.01
53      G39C A51G           0.38
54      C13A G68C          0.151
55      C58G G73A          0.406
56      C13U C61G          0.684
57      C62U A78G          0.475
58      A42U G50U          0.727
59      G67C G82C          0.289
60      G53C C61U            1.2
61      G25C A56U          0.178
62      C49A C84G          0.743
63      C48A C57U           0.76
64      C57G G76C          0.895
65      A51G U69C            0.9
66      U47A G80U          0.172
67      G11U C75G         0.0264
68      C26G G35A          0.326
69       G1C U60C         0.0639
70      C22G U23C              0
71       C7G G39U              0
72       G1U G50A          0.475
73      A70C A77G          0.808
74      C21U G53C          0.188
75      U27C A70U           0.72
76       C3U G38A         0.0811
77      C49U G59C          0.799
78      C33G C63U          0.173
79      G76U C85A           1.05
80      C64U C84A          0.801
81       C4G A78G         0.0923
82      G73C A83U          0.348
83      A45U A71U           1.01
84      G40C G67A           0.23
85      G39C A43U              0
86      U37G G67U           0.18
87       C7G C14A         0.0923
88      A70C C85U           1.07
89      U23A G55C           1.12
90      U20C A77C         0.0615
91      C32U G40U          0.758
